Listed variants paired with reported protein stability index
B1: FAM50A (parent)
chain: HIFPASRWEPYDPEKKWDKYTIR

- Variants of: B1
- assay: protein stability index of a GFP-peptide fusion (GPS, HEK-293T) (PSI 1-6); higher = more stable;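 note: lentivirally expressed fusions sorted by FACS into six bins by GFP to DsRed ratio, PSI derived from sequencing read proportions per bin multiplied by bin number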
- settings: c terminus: native
endpoint: protein stability index

INSERT INTO measurements (change, result) VALUES
  ('E9G', 1.72),
  ('Y11D', 2.74),
  ('E9R', 2.43),
  ('I2V', 2.88),
  ('I22Q', 2.91),
  ('R7W', 1.22),
  ('H1M', 1.22),
  ('I22S', 2.72),
  ('I22D', 2.02),
  ('R7I', 1.48),
  ('Y20T', 3.05),
  ('R7D', 3.29),
  ('K19I', 2.22),
  ('P4N', 2.71),
  ('D12E', 2.15),
  ('Y11P', 2.71),
  ('R7E', 3.47),
  ('S6I', 2.63),
  ('I2P', 2.15),
  ('I22K', 3.3);
